Antifungal activity MIC by entry:
tested on: Candida tropicalis KKP 334; assay: antifungal activity in vitro, serial dilution in RPMI 1640; assay type: cell-based
RECORDED ENDPOINT: Antifungal activity MIC

[[record]]
compound = "C[C@@H]1[C@H](O)[C@@H](C)/C=C/C=C/C=C/C=C/C=C/C=C/C=C/[C@H](O[C@@H]2O[C@H](C)[C@@H](O)[C@H](NC(=O)[C@H](N)Cc3cccnc3)[C@@H]2O)C[C@@H]2O[C@](O)(C[C@@H](O)C[C@@H](O)[C@H](O)CC[C@@H](O)C[C@@H](O)CC(=O)O[C@H]1C)C[C@H](O)[C@H]2C(=O)O"
recorded_endpoint = "Antifungal activity MIC"
observed = "2 µg/mL"

[[record]]
compound = "C[C@@H]1[C@H](O)[C@@H](C)/C=C/C=C/C=C/C=C/C=C/C=C/C=C/[C@H](O[C@@H]2O[C@H](C)[C@@H](O)[C@H](NC(=O)[C@H](N)CC(=O)OC(C)(C)C)[C@@H]2O)C[C@@H]2O[C@](O)(C[C@@H](O)C[C@@H](O)[C@H](O)CC[C@@H](O)C[C@@H](O)CC(=O)O[C@H]1C)C[C@H](O)[C@H]2C(=O)O"
recorded_endpoint = "Antifungal activity MIC"
observed = "4 µg/mL"

[[record]]
compound = "C[C@@H]1[C@H](O)[C@@H](C)/C=C/C=C/C=C/C=C/C=C/C=C/C=C/[C@H](O[C@@H]2O[C@H](C)[C@@H](O)[C@H](NC(=O)C(N)Cc3ccccc3F)[C@@H]2O)C[C@@H]2O[C@](O)(C[C@@H](O)C[C@@H](O)[C@H](O)CC[C@@H](O)C[C@@H](O)CC(=O)O[C@H]1C)C[C@H](O)[C@H]2C(=O)O (stereo partly drawn)"
recorded_endpoint = "Antifungal activity MIC"
observed = "4 µg/mL"

[[record]]
compound = "C[C@@H]1[C@H](O)[C@@H](C)/C=C/C=C/C=C/C=C/C=C/C=C/C=C/[C@H](O[C@@H]2O[C@H](C)[C@@H](O)[C@H](NC3CC(=O)N(c4ccc(Br)cc4)C3=O)[C@@H]2O)C[C@@H]2O[C@](O)(C[C@@H](O)C[C@@H](O)[C@H](O)CC[C@@H](O)C[C@@H](O)CC(=O)O[C@H]1C)C[C@H](O)[C@H]2C(=O)O (stereo partly drawn)"
recorded_endpoint = "Antifungal activity MIC"
observed = "4 µg/mL"

[[record]]
compound = "Cc1cc(C)c(N2C(=O)CC(N[C@@H]3[C@H](O)[C@H](O[C@H]4/C=C/C=C/C=C/C=C/C=C/C=C/C=C/[C@H](C)[C@@H](O)[C@@H](C)[C@H](C)OC(=O)C[C@H](O)C[C@H](O)CC[C@@H](O)[C@H](O)C[C@H](O)C[C@]5(O)C[C@H](O)[C@@H](C(=O)O)[C@H](C4)O5)O[C@H](C)[C@H]3O)C2=O)c(C)c1 (stereo partly drawn)"
recorded_endpoint = "Antifungal activity MIC"
observed = "4 µg/mL"

[[record]]
compound = "C[C@@H]1[C@H](O)[C@@H](C)/C=C/C=C/C=C/C=C/C=C/C=C/C=C/[C@H](O[C@@H]2O[C@H](C)[C@@H](O)[C@H](NC(=O)[C@H](N)COC(C)(C)C)[C@@H]2O)C[C@@H]2O[C@](O)(C[C@@H](O)C[C@@H](O)[C@H](O)CC[C@@H](O)C[C@@H](O)CC(=O)O[C@H]1C)C[C@H](O)[C@H]2C(=O)O"
recorded_endpoint = "Antifungal activity MIC"
observed = "4 µg/mL"


Cited source for all entries: patent US9745335B2
